Experiment: Human HepG2 cell viability assay in 384 well format
Assay type: toxicity, cell-based
Set-up: dose 125 nL, time 70.5 hour; concentration not given beside the values
Conditions: HepG2 cells, read-out: Inhibition
assay metric: cytotoxicity at 70.5 h (%)
One number for each entry, in %.

[
  {
    "molecule": "O=C(Nc1ccc2c(c1)OCO2)Nc1cnn(C2CCOCC2)c1",
    "cytotoxicity at 70.5 h, %": -0.609
  },
  {
    "molecule": "Cc1nsc(NC(=O)NC2CCCN(C)C2)n1 (centres undefined)",
    "cytotoxicity at 70.5 h, %": 29.6
  },
  {
    "molecule": "Cc1nn(C)c(C)c1CNCc1ccnc(N2CCOCC2)c1",
    "cytotoxicity at 70.5 h, %": 31.5
  },
  {
    "molecule": "CCn1cc(-c2nccnc2C2CCCN(C(C)=O)C2)cn1 (centres undefined)",
    "cytotoxicity at 70.5 h, %": -4.58
  },
  {
    "molecule": "Cn1ccnc1CN1C[C@@H](CN2CCCCC2)[C@@H](CO)C1",
    "cytotoxicity at 70.5 h, %": -6.64
  }
]

The following molecules each have a reported value; give each one's cytotoxicity at 70.5 h.
1. Cc1ccnn1CC(=O)N1CCCN(C2Cc3ccccc3C2)CC1
2. NC(=O)CN(Cc1ccc(Br)cc1)C(=O)c1cccnc1
3. CCOC(=O)C1CCCN(c2ccc(-c3nc(C)no3)cn2)C1 (centres undefined)

-14.5
-3.52
-4.38

Origin of values: ChEMBL document CHEMBL3507680
